target: Estrogen receptor (Homo sapiens); experiment: qHTS assay to identify small molecule agonists of the estrogen receptor alpha (ER-alpha) signaling pathway using the BG1 cell line (AID 743079); settings: BG1Luc4E2 cells, ERE-luciferase agonist, 22 h; series mostly up to 70.3 µM; note: nearly all actives have a fitted effect of over 20% in size
Records with an inconclusive call do not appear. Active and inactive are the calls of the source. Calls come from the whole dose curve; as a rule, active = well fitted activation curve with a large enough effect in the repeat runs; inconclusive = weak or mixed curves, or effect the other way; inactive = no such curve, though single readings can be large or run the other way.
Assign a class; possible classes are YES (active), NO (inactive)

Task: Just curious, what result did Cc1cc(O)c(Cl)cc1C get here?
Result: NO

Task: GET /call?item= NNC(=O)CCCCC(=O)NN returns the recorded outcome of this test.
Result: NO

Task: Hello, I am checking results. What call was entered for CCOC(=O)c1ccc(N(C)C)cc1 ?
Result: YES

Task: Outcome logged for Cc1ccc(S(=O)(=O)NC(=O)NN2CC3CCCC3C2)cc1 (stereo not given) in this assay:
Result: NO

Task: Recorded test outcome, item O=Cc1ccc(C(=O)O)cc1
Result: NO

Task: Answer briefly: the call reported for CCO[Si](CC(C)C)(OCC)OCC in this assay.
Result: NO

Task: Would you mind telling me which call this test gave C/C(=N\O)c1ccc(OCC(=O)N2CCCCC2)cc1 ?
Result: YES

Task: Fill in: this test's call for COc1cnc(NS(=O)(=O)c2ccc(N)cc2)nc1 is ___
Result: NO

Task: I would be grateful if you could indicate the recorded call for C=COCCCCO .
Result: NO

Task: Short answer needed: outcome of this test for Cc1cc(C)c(N)c(Cl)c1 ?
Result: NO

Task: Look up the recorded call for O=C(CCBr)N1CCN(C(=O)CCBr)CC1 in this test.
Result: NO

Task: What did this assay record as the result for CC(C)(O)CCCC1=CCC(C=O)CC1 (stereo not given) ?
Result: YES

Task: Hi, sorry to bother you, what did the test record for Cc1cccc(N)n1 ?
Result: NO

Task: Hello, I am checking results. What call was entered for C/C=C(\C)C=O ?
Result: NO

Task: // return assay outcome for O=S(=O)(O)c1ccc(Cl)cc1
Result: NO

====

assay: qHTS RealTime-Glo MT Cell Viability Assay in HEK293 cells - 0 hour (AID 1224880); conditions: RealTime-Glo luminescence; series mostly up to 76.8 µM; note: top concentration of the series differs between compounds; nearly all actives have a fitted effect of over 45% in size
Results filed as inconclusive are left out. Active and inactive are the calls of the source. Calls come from the whole dose curve; as a rule, active = well fitted cell-killing curve with a large enough effect in the repeat runs; inconclusive = weak or mixed curves, or effect the other way; inactive = flat fitted curve, though single readings scatter.
measured.metric: activity change, negative = cytotoxicity

Study these solved cases before continuing.
>>> test_result("CC(C)(C)OC=O")
"inactive"
>>> test_result("CC(=O)c1ccc(O)c(C(N)=O)c1")
"inactive"
>>> test_result("Cc1ccc(NC(N)=O)cc1")
"inactive"
>>> test_result("CC(C)(C)OC(=O)c1ccccc1C(=O)O")
"inactive"
>>> test_result("CNCCc1ccccn1")
"inactive"
>>> test_result("C=CCn1cc[n+](C)c1")
"inactive"
>>> test_result("Cc1cc(N)no1")
"inactive"
>>> test_result("CCCC(=O)C(CC)Sc1ccoc1C (stereo not given)")
"inactive"

Task: Specify activity change, negative = cytotoxicity for CN(C)CCC[C@@]1(c2ccc(F)cc2)OCc2cc(C#N)ccc21 and stop.
Result: inactive

Task: Write down activity change, negative = cytotoxicity measured for item Cc1cc(C)c(C)c(C)c1
Result: inactive

====

Assay: qHTS assay to identify small molecule phospholipidosis (PLD) inducers (AID 1259344)
Details: HepG2 phospholipidosis, LipidTOX Red imaging, 24 h; series mostly up to 38.3 µM
Method: National Center for Advancing Translational Sciences [NCATS] Drug-induced Phospholipidosis (PLD) caused by cationic amphiphilic drugs is characterized by the appearance of unicentric or multicentric-lamellar bodies when viewed under electron microscope. […] Drug induced phospholipid accumulation is stained with the LipidTox dyes in red color which then is determined using an automated high content screening system. […]
Records with an inconclusive call do not appear. Active and inactive are the calls of the source. The call rests on the fitted dose curve; in most records, active means well fitted activation curve with a large enough effect; inconclusive means small, poorly fitted or top-dose-only effect; inactive means flat fitted curve, though single readings scatter.
Classes to choose from: active, inactive

Task: How did this test come out for C[C@H]1COc2c(C3(N)CC3)c(F)cc3c(=O)c(C(=O)O)cn1c23 ?
Result: inactive

Task: So what was the verdict on CC(=O)SC[C@@H](C)C(=O)N1CCC[C@H]1C(=O)N[C@@H](Cc1ccccc1)C(=O)O in this test?
Result: active

Task: Which outcome did this test record for the compound CCOC(=O)[C@H](CCc1ccccc1)N[C@H]1CS[C@H](c2cccs2)CN(CC(=O)O)C1=O ?
Result: inactive

Task: Check the results log: what was the call for COC(=O)C(c1ccccc1Cl)N1CCc2sccc2C1 (stereo not given) ?
Result: inactive

Task: Field: outcome | Entry: CCOC(=O)COc1ccc2c(C)c(CCN(CC)CC)c(=O)oc2c1Cl
Result: inactive

Task: In this assay, the call recorded for O=C(OOC(=O)c1ccccc1)c1ccccc1 was what?
Result: inactive

Task: Record lookup: outcome of this test for NCC1CCC(C(=O)Oc2ccc(CCC(=O)O)cc2)CC1 (stereo not given) ?
Result: inactive

Task: Dear all, I need the recorded test outcome for CC(C)OC(=O)C(C(=O)OC(C)C)=C1SC=CS1 , thank you.
Result: inactive

Task: How was N=C(N)N1CCc2ccccc2C1 classified in this test?
Result: inactive

Task: Any idea what this test logged for C[n+]1ccccc1/C=N/O ?
Result: inactive

Task: What is the recorded call for this compound in the test? O=C1CC2(CCCC2)CC(=O)N1CCNCC1COc2ccccc2O1 (stereo not given)
Result: inactive

Task: Each compound tested received a call. Report the one for CC[C@@]1(c2ccccc2)NC(=O)N(C)C1=O .
Result: inactive

Task: Assay outcome for O=C(O)/C=C(\CC(=O)O)C(=O)O : what was it?
Result: inactive

Task: What call does the record list for CC(=O)SCC(CC(=O)c1ccc(C)cc1)C(=O)O (stereo not given) ?
Result: inactive

Task: Dear colleague, could you share the recorded outcome for COc1ccc2cc(CCC(C)=O)ccc2c1 when you have a moment?
Result: inactive
